Target system: Muscarinic acetylcholine receptor M5 (Homo sapiens)
Test name: M5 muscarinic receptor negative allosteric modulators, cell-based, single concentration, human M5 (AID 743025)
Assay context: CHO-K1 hM5, ACh EC80 calcium flux, Fluo-4; at 10 µM; stronger effect = lower value
Reported activity remaining is given for each of the following compounds.
Assay readout: activity remaining (%)

{"Compound": "O=C(c1ccc(F)cc1)N1CCN2C(=O)c3ncccc3C12c1ccccc1 (stereo not given)", "Value reported": 65.2}
{"Compound": "O=C(c1ccc(SC(F)(F)F)cc1)N1CCCN2C(=O)c3ccccc3C12c1ccc(Cl)cc1 (stereo not given)", "Value reported": 78.5}
{"Compound": "CN(C)c1ccc(C(=O)N2CCN3C(=O)c4ccccc4C23c2ccc(Cl)cc2)cc1 (stereo not given)", "Value reported": 82.9}
{"Compound": "O=C(c1ccc(F)cc1)N1CCN2C(=O)c3ccccc3C12c1ccc(F)cc1 (stereo not given)", "Value reported": 69.7}
{"Compound": "O=C1c2ccccc2C2(c3ccccc3)N1CCN2C(=O)c1c(F)cccc1F (stereo not given)", "Value reported": 84}

* * *

Reported activity remaining is given for each of the following molecules.
Target system: Muscarinic acetylcholine receptor M5 (Homo sapiens) (UniProt P08912)
Sequence (P08912 whole entry, looked up): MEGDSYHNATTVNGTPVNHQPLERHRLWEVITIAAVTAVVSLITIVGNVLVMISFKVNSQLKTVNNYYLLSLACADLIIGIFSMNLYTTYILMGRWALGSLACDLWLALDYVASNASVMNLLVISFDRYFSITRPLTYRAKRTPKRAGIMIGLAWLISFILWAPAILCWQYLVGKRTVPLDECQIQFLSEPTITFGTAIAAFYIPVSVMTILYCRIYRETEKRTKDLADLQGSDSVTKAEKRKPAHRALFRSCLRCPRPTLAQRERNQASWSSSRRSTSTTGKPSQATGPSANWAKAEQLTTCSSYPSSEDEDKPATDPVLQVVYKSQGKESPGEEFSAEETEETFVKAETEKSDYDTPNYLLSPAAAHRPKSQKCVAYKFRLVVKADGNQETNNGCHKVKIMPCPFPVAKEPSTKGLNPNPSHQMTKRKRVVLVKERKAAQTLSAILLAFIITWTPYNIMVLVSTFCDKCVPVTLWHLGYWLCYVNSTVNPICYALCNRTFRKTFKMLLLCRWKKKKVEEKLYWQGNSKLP
Test name: M5 muscarinic receptor negative allosteric modulators, cell-based, single concentration, human M5 (AID 743025)
Assay context: CHO-K1 hM5, ACh EC80 calcium flux, Fluo-4; at 10 µM; stronger effect = lower value
Calls of active or inactive are those of the source.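 How the source made its calls: active means IC50 below 10 µM at human M5 in a calcium flux test, acting as a negative modulator; inactive means the rest.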

{"Molecule": "Cc1ccc(C23c4ccccc4C(=O)N2CCN3C(=O)c2ccc(OC(F)(F)F)cc2)cc1 (stereo not given)", "activity remaining": "6.55% (active)"}
{"Molecule": "O=C(Nc1cccc(Cl)c1)N1CCN2C(=O)c3ccccc3C12c1ccccc1 (stereo not given)", "activity remaining": "83% (inactive)"}
{"Molecule": "COc1ccc(C23c4ccccc4C(=O)N2CCN3C(=O)c2cccc(F)c2)cc1 (stereo not given)", "activity remaining": "57.4% (active)"}
{"Molecule": "O=C(c1ccc(SC(F)(F)F)cc1)N1CCN2C(=O)c3ncccc3C12c1ccccc1 (stereo not given)", "activity remaining": "62.1% (inactive)"}
{"Molecule": "O=C1c2ccccc2C2(c3ccccc3)N1CCN2C(=O)C(Cl)(Cl)Cl (stereo not given)", "activity remaining": "55.1% (active)"}
{"Molecule": "Cc1ccc(C23NCCN2C(=O)c2ccccc23)cc1 (stereo not given)", "activity remaining": "77.4% (inactive)"}
{"Molecule": "O=C1c2ccccc2C2(c3ccc(Cl)cc3)NCCCN12 (stereo not given)", "activity remaining": "70.4% (inactive)"}
{"Molecule": "O=C(c1ccccc1)N1CCN2C(=O)c3ncccc3C12c1ccccc1 (stereo not given)", "activity remaining": "78.7% (inactive)"}
{"Molecule": "Cc1cccc(C(=O)N2CCN3C(=O)c4ccccc4C23c2ccccc2)c1 (stereo not given)", "activity remaining": "52.7% (active)"}
{"Molecule": "O=C1c2ccccc2C2(c3ccccc3)N1CCN2S(=O)(=O)c1cccc(C(F)(F)F)c1 (stereo not given)", "activity remaining": "80% (inactive)"}

* * *

Target system: Muscarinic acetylcholine receptor M5 (Homo sapiens) (UniProt P08912)
Test name: M5 muscarinic receptor negative allosteric modulators, cell-based, single concentration, human M5 (AID 743025)
Assay context: CHO-K1 hM5, ACh EC80 calcium flux, Fluo-4; at 10 µM
Activity calls are given as the source filed them.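 The calls were made as follows: active = IC50 below 10 µM at human M5 in a calcium flux test, acting as a negative modulator; inactive = the rest.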
Labels: Y for active, N for inactive

{"Compound": "O=C(c1ccccc1C(F)(F)F)N1CCN2C(=O)c3ccccc3C12c1ccccc1 (stereo not given)", "Label": "N"}
{"Compound": "O=C(c1ccc(C(=O)C(F)(F)F)cc1)N1CCN2C(=O)c3ccccc3C12c1ccccc1 (stereo not given)", "Label": "N"}
{"Compound": "O=C(c1ccc(SC(F)(F)F)cc1)N1CCN2C(=O)c3ccccc3C12c1ccccc1 (stereo not given)", "Label": "Y"}
{"Compound": "O=C(c1ccc(OC(F)F)cc1)N1CCN2C(=O)c3ccccc3C12c1ccc(Cl)cc1 (stereo not given)", "Label": "Y"}
{"Compound": "O=C(c1cccc(C(F)(F)F)c1)N1CCN2C(=O)c3ccccc3C12c1ccc(F)cc1 (stereo not given)", "Label": "Y"}
{"Compound": "CCCN1C(=O)c2ccccc2C1c1ccccc1 (stereo not given)", "Label": "N"}
{"Compound": "CN(C)c1ccc(C(=O)N2CCN3C(=O)c4ccccc4C23c2ccccc2)cc1 (stereo not given)", "Label": "N"}
{"Compound": "Cc1cccc(C(=O)N2CCCN3C(=O)c4ccccc4C23c2ccc(Cl)cc2)c1 (stereo not given)", "Label": "N"}
{"Compound": "COc1ccc(C23c4ccccc4C(=O)N2CCN3C(=O)c2ccccc2C)cc1 (stereo not given)", "Label": "Y"}
{"Compound": "O=C(c1ccc(SC(F)(F)F)cc1)N1CCN2C(=O)c3ccccc3C12c1ccc(F)cc1 (stereo not given)", "Label": "Y"}

* * *

Target system: Muscarinic acetylcholine receptor M5 (Homo sapiens) (UniProt P08912)
Test name: M5 muscarinic receptor negative allosteric modulators, cell-based, single concentration, human M5 (AID 743025)
Assay context: CHO-K1 hM5, ACh EC80 calcium flux, Fluo-4; at 10 µM
Calls of active or inactive are those of the source.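 Rule for the calls: active = IC50 below 10 µM at human M5 in a calcium flux test, acting as a negative modulator; inactive = the rest.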
Labels: active, inactive

{"Molecule": "O=C(c1ccc(C(F)(F)F)cc1)N1CCN2C(=O)c3ccccc3C12c1ccc(Cl)cc1 (configuration not stated)", "Label": "active"}
{"Molecule": "Cc1ccc(C23c4ccccc4C(=O)N2CCN3C(=O)c2ccc(F)c(F)c2)cc1 (configuration not stated)", "Label": "active"}
{"Molecule": "O=C(c1ccccc1)N1CCN(C(=O)c2ccccc2)C1c1ccccc1", "Label": "inactive"}
{"Molecule": "O=C(c1cccc(C(F)(F)F)c1)N1CCN2C(=O)c3ccccc3C12c1ccccc1 (configuration not stated)", "Label": "active"}
{"Molecule": "O=C(c1ccc(OC(F)(F)F)cc1)N1CCN2C(=O)c3ncccc3C12c1ccccc1 (configuration not stated)", "Label": "inactive"}
{"Molecule": "O=C(c1cccc(C(F)(F)F)c1)N1CCN2C(=O)c3ccccc3C12c1ccc(Cl)cc1 (configuration not stated)", "Label": "active"}
{"Molecule": "Cc1ccc(C(=O)N2CCN3C(=O)c4ccccc4C23c2ccccc2)cc1 (configuration not stated)", "Label": "inactive"}
{"Molecule": "COc1ccccc1NC(=O)N1CCN2C(=O)c3ccccc3C12c1ccccc1 (configuration not stated)", "Label": "inactive"}
{"Molecule": "Cc1ccc(C(=O)N2CCN3C(=O)c4ncccc4C23c2ccccc2)cc1 (configuration not stated)", "Label": "inactive"}
{"Molecule": "COc1ccc(C(=O)N2CCN3C(=O)c4ccccc4C23c2ccc(Cl)cc2)cc1F (configuration not stated)", "Label": "inactive"}
{"Molecule": "O=C(c1ccc(-c2ccccc2)cc1)N1CCN2C(=O)c3ccccc3C12c1ccccc1 (configuration not stated)", "Label": "inactive"}
{"Molecule": "O=C1c2ccccc2C2(c3ccccc3)NCCN12 (configuration not stated)", "Label": "inactive"}
{"Molecule": "CCCCCC(=O)N1CCN2C(=O)c3ccccc3C12c1ccccc1 (configuration not stated)", "Label": "inactive"}
{"Molecule": "Cc1ccc(C23c4ccccc4C(=O)N2CCN3C(=O)c2ccc(SC(F)(F)F)cc2)cc1 (configuration not stated)", "Label": "active"}
{"Molecule": "O=C(c1ccc(OC(F)(F)F)cc1)N1CCCN2C(=O)c3ccccc3C12c1ccc(Cl)cc1 (configuration not stated)", "Label": "inactive"}
{"Molecule": "CCOc1ccc(C(=O)N2CCN3C(=O)c4ccccc4C23c2ccccc2)cc1 (configuration not stated)", "Label": "inactive"}
{"Molecule": "O=C(NCCNC(=O)c1ccccc1C(=O)c1ccc(F)cc1)c1ccccc1", "Label": "inactive"}
{"Molecule": "Clc1ccc(C2(c3ccccc3)CCCN2)cc1 (configuration not stated)", "Label": "inactive"}
{"Molecule": "Cc1ccc(C23c4ccccc4C(=O)N2CCN3C(=O)c2ccc(C(F)(F)F)cc2)cc1 (configuration not stated)", "Label": "active"}
{"Molecule": "O=C(c1ccc(F)cc1)N1CCCC1c1ccccc1 (configuration not stated)", "Label": "inactive"}
{"Molecule": "O=C(c1ccccc1)N1CCN2C(=O)c3ccccc3C12c1ccc(Cl)cc1 (configuration not stated)", "Label": "active"}
{"Molecule": "O=C(c1ccc(C(F)(F)F)cc1)N1CCN2C(=O)c3ncccc3C12c1ccccc1 (configuration not stated)", "Label": "inactive"}
{"Molecule": "O=C(c1cccnc1)N1CCN2C(=O)c3ccccc3C12c1ccc(Cl)cc1 (configuration not stated)", "Label": "inactive"}
{"Molecule": "O=C(c1cccc(C(F)(F)F)c1)N1CCN2C(=O)c3ncccc3C12c1ccccc1 (configuration not stated)", "Label": "inactive"}
{"Molecule": "O=C(Nc1ccc(F)cc1)N1CCN2C(=O)c3ccccc3C12c1ccccc1 (configuration not stated)", "Label": "inactive"}
{"Molecule": "CC(C)(C)NC(=O)N1CCCN2C(=O)c3ccccc3C12c1ccccc1 (configuration not stated)", "Label": "inactive"}
{"Molecule": "O=C(c1cc(F)cc(F)c1)N1CCCN2C(=O)c3ccccc3C12c1ccc(Cl)cc1 (configuration not stated)", "Label": "inactive"}
{"Molecule": "Cc1ccc(C(=O)N2CCN3C(=O)c4ccccc4C23c2ccc(Cl)cc2)cc1 (configuration not stated)", "Label": "active"}
{"Molecule": "O=C(c1ccccc1)N1CCN2C(=O)c3ccccc3C12c1ccc(F)cc1 (configuration not stated)", "Label": "active"}
{"Molecule": "O=C1c2ccccc2C2(c3ccccc3)Nc3ccccc3N12 (configuration not stated)", "Label": "inactive"}
{"Molecule": "Cc1ccc(S(=O)(=O)N2CCN3C(=O)c4ccccc4C32c2ccccc2)cc1 (configuration not stated)", "Label": "inactive"}
{"Molecule": "O=C(c1cc(Cl)cc(Cl)c1)N1CCN2C(=O)c3ccccc3C12c1ccccc1 (configuration not stated)", "Label": "active"}
{"Molecule": "O=C(c1ccc(C(F)(F)F)cc1)N1CCN2C(=O)c3ccccc3C12c1ccc(F)cc1 (configuration not stated)", "Label": "inactive"}
{"Molecule": "O=C(Nc1ccc(F)cc1F)N1CCN2C(=O)c3ccccc3C12c1ccc(Cl)cc1 (configuration not stated)", "Label": "inactive"}
{"Molecule": "Cc1ccccc1C(=O)N(C)C(c1ccccc1)c1ccccc1", "Label": "inactive"}
{"Molecule": "O=C(c1ccccn1)N1CCN2C(=O)c3ncccc3C12c1ccccc1 (configuration not stated)", "Label": "inactive"}
{"Molecule": "O=C(c1ccc(F)cc1)N1CCN2C(=O)c3ccccc3C12c1ccc(Cl)cc1 (configuration not stated)", "Label": "inactive"}
{"Molecule": "O=C(c1cc(F)cc(F)c1)N1CCN2C(=O)c3ccccc3C12c1ccc(F)cc1 (configuration not stated)", "Label": "inactive"}
{"Molecule": "O=C(c1ccccc1)N1CCCC1c1ccccc1 (configuration not stated)", "Label": "inactive"}
{"Molecule": "Cc1ccc(C23c4ccccc4C(=O)N2CCN3C(=O)c2ccccc2)cc1 (configuration not stated)", "Label": "active"}
{"Molecule": "Cc1ccc(C(=O)N2CCCN3C(=O)c4ccccc4C23c2ccc(Cl)cc2)cc1 (configuration not stated)", "Label": "inactive"}
{"Molecule": "Cc1ccc(C(=O)N2CCN3C(=O)c4ccccc4C23c2ccc(F)cc2)cc1 (configuration not stated)", "Label": "inactive"}
